target.entity: menin/MLL binding (biotinylated wild-type or mutated menin and MLL-AF9 fusion protein) (Homo sapiens)
Construct: biotinylated (1) wild-type menin or (2) mutated menin (described in Nature (2012) Vol. 482, pp. 542-548); fused on or other part: Biotin attached chemically (Sulfo-NHS-Biotin); no fused second protein is printed for menin
Sequence (O00255 1-459 limits assumed, change not shown): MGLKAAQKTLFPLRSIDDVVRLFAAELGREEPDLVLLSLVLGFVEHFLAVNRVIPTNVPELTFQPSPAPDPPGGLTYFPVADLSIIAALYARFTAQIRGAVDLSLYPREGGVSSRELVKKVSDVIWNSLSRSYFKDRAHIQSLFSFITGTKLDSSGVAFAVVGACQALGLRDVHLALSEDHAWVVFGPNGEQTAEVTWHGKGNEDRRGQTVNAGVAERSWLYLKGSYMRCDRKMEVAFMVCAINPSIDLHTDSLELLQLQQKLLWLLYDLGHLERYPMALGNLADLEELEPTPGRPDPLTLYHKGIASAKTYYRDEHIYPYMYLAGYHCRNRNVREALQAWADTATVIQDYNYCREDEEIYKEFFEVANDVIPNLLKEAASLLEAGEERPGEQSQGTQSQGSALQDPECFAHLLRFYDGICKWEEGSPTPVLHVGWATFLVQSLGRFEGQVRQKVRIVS
experimental.details: Assay 1 (Binding Assay): AlphaLISA menin/MLL binding
stated.conditions: 5 nM biotinylated menin, MLL-AF9-FLAG lysate
pIC50: −log10 of the molar value.
experimental.endpoint: pIC50

1) Cc1c(CN2CCC(c3cn(-c4ccc(F)cc4C(=O)N(C)C(C)C)c4cncnc34)CC2)ccc2[nH]c(C#N)cc12 : > 7.00
2) CC(C)N(C)C(=O)c1cc(F)ccc1-n1cc(C2CCCNCC2)c2ccncc21 (centres unmarked) [Example 41A] : 6.00 to 7.00
3) CC(C)N(C)C(=O)c1cc(F)ccc1-n1cc(C2CCN(CCc3cccc(C#N)c3)CC2)c2ccncc21 : > 7.00
4) CCN(C(=O)c1cc(F)ccc1-n1cc(C2CCCN(Cc3ccc4[nH]c(=O)[nH]c4c3)C2)c2ccncc21)C(C)C (centres unmarked) [Example 47] : > 7.00
5) Cc1c(CN2CCC(c3cn(-c4ccccc4)c4cncnc34)CC2)ccc2[nH]c(C#N)cc12 : ≤ 6.00
